Data provenance is patent US9370569B2.

As an illustration, consider measured IC50 for molecules on influenza RNA polymerase (Influenza A virus, UniProt P03431).
Sequence (P03431 whole entry, looked up): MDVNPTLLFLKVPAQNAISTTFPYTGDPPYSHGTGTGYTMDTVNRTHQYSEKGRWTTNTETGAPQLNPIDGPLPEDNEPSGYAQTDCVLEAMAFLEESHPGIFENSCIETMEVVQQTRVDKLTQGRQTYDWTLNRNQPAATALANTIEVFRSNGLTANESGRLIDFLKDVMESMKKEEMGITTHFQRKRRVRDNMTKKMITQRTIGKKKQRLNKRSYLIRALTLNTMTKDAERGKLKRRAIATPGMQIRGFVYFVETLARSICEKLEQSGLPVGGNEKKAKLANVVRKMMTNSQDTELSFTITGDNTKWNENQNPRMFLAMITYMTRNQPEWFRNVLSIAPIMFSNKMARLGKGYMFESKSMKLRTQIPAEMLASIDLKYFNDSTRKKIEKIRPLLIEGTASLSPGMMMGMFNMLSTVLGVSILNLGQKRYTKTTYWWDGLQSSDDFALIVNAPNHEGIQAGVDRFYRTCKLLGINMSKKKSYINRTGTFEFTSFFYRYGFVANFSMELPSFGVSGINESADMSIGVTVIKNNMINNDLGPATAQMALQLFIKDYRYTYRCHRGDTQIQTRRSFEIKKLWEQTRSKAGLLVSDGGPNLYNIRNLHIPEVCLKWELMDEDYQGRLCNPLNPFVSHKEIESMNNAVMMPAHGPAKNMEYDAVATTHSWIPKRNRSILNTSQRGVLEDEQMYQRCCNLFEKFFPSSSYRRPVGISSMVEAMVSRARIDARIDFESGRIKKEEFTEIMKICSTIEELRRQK
Assay readout: IC50

Nc1ccn([C@@H]2O[C@@](COP(=O)(O)OP(=O)(O)OP(=O)(O)O)(C(F)F)[C@@H](O)[C@H]2O)c(=O)n1 [TPP-4] :: < 10 µM
Nc1nc2c(ncn2[C@@H]2O[C@@](COP(=O)(O)OP(=O)(O)OP(=O)(O)O)(C(F)F)[C@@H](O)[C@H]2O)c(=O)[nH]1 [TPP-10] :: < 10 µM
Nc1ncnc2c1ncn2[C@@H]1O[C@@](COP(=O)(O)OP(=O)(O)OP(=O)(O)O)(C(F)F)[C@@H](O)[C@H]1O [TPP-8] :: < 10 µM
Nc1nc(=O)n([C@@H]2O[C@@](COP(=O)(O)OP(=O)(O)OP(=O)(O)O)(C(F)F)[C@@H](O)[C@H]2O)cc1Cl [TPP-5] :: 10 to 100 µM
Nc1nc(=O)n([C@@H]2O[C@@](COP(=O)(O)OP(=O)(O)OP(=O)(O)O)(C(F)F)[C@@H](O)[C@H]2O)cc1F [TPP-6] :: < 10 µM
Nc1nc(N)c2ncn([C@@H]3O[C@@](COP(=O)(O)OP(=O)(O)OP(=O)(O)O)(C(F)F)[C@@H](O)[C@H]3O)c2n1 [TPP-7] :: > 100 µM
